SUBJECT_OF_TEST: UniProtKB P29274
MEASUREMENT_DESCRIPTION: Displacement of [3H][…] from human adenosine A2A receptor expressed in human HeLa cells at 0.1 uM by liquid scintillation counting
Type: cell-based
Attribute: inhibition
Write the number in % without appending the unit.

SMILES	inhibition (%)
CCC(CC)C(=O)Nc1cc(-c2ccc(OC)cc2OC)nc(-c2ccc(OC)cc2OC)n1	2
CC(=O)Nc1nc(-c2ccc(C(F)(F)F)cc2)cc(-c2ccc(C(F)(F)F)cc2)n1	1
CCCC(=O)Nc1nc(-c2ccco2)cc(-c2ccco2)n1	23

# input What measured inhibition goes with CC(=O)Nc1nc(-c2ccsc2)cc(-c2ccsc2)n1 ?
# output 2

# input Name the recorded inhibition for CC(=O)Nc1nc(-c2ccc3c(c2)OCO3)cc(-c2ccc3c(c2)OCO3)n1 .
# output 15

# input What inhibition value was documented for this compound, CCC(=O)Nc1nc(-c2ccc(Cl)cc2)cc(-c2ccc(Cl)cc2)n1 ?
# output 11

# input inhibition lookup needed for COc1ccc(-c2cc(NC(=O)C(C)C)nc(-c3ccc(OC)cc3)n2)cc1 , thanks.
# output 1

# input Please give the measured inhibition for this compound: CCC(=O)Nc1cc(-c2ccc(C(C)=O)cc2)nc(-c2ccc(C(C)=O)cc2)n1
# output 1

# input Which value of inhibition has been reported for COc1ccc(-c2cc(NC(C)=O)nc(-c3ccc(OC)cc3OC)n2)c(OC)c1 in the records?
# output 6

====

Readings of Ki for the listed molecules
SUBJECT_OF_TEST: Adenosine receptor A3 (Homo sapiens, UniProt P0DMS8)
Sequence (P0DMS8 whole entry): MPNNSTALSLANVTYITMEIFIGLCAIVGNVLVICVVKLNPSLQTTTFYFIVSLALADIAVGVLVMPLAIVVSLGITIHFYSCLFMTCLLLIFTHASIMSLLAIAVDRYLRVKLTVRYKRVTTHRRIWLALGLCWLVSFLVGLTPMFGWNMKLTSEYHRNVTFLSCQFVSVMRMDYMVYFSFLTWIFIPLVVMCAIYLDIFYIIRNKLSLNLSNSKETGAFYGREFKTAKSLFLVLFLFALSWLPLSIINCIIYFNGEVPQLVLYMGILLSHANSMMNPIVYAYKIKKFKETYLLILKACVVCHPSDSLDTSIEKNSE
MEASUREMENT_DESCRIPTION: Displacement of [3H]NECA from human adenosine A3 receptor expressed in human HeLa cells by liquid scintillation counting
Type: cell-based
RUN_CONDITIONS: read-out: Ki
Answer format: numeric, nM implied, no suffix.

For orientation, consider the following solved cases.
SMILES	SUBJECT_OF_TEST	REPORTED_ENDPOINT	VALUE_UNIT	TEST_VALUE
COc1ccc(-c2cc(NC(C)=O)nc(-c3ccc(OC)cc3OC)n2)c(OC)c1	Adenosine receptor A3 (Homo sapiens, UniProt P0DMS8)	Ki	nM	5.4
CC(=O)Nc1cc(-c2cccs2)nc(-c2cccs2)n1	Adenosine receptor A3 (Homo sapiens, UniProt P0DMS8)	Ki	nM	8
CC(=O)Nc1cc(-c2ccccc2)nc(-c2ccccc2)n1	Adenosine receptor A3 (Homo sapiens, UniProt P0DMS8)	Ki	nM	12.1

# input Which Ki value belongs to CC(=O)Nc1cc(-c2ccc(C(C)=O)cc2)nc(-c2ccc(C(C)=O)cc2)n1 ?
# output 25.2

# input Which Ki reading was recorded for the molecule CC(=O)Nc1cc(-c2ccc3c(c2)OCO3)nc(-c2ccc3c(c2)OCO3)n1 ?
# output 3.3

# input Fill in: Ki of CCC(=O)Nc1nc(-c2ccc(C)cc2)cc(-c2ccc(C)cc2)n1 is ___
# output 157

# input What does the data say about its Ki? Entry: CCC(=O)Nc1cc(-c2ccc(OC)cc2OC)nc(-c2ccc(OC)cc2OC)n1
# output 11.3

# input Look up Ki for this molecule: CCC(=O)Nc1nc(-c2ccccc2)cc(-c2ccccc2)n1
# output 531

====

SUBJECT_OF_TEST: Adenosine receptor A2a (Homo sapiens, UniProt P29274)
Sequence (P29274 whole entry): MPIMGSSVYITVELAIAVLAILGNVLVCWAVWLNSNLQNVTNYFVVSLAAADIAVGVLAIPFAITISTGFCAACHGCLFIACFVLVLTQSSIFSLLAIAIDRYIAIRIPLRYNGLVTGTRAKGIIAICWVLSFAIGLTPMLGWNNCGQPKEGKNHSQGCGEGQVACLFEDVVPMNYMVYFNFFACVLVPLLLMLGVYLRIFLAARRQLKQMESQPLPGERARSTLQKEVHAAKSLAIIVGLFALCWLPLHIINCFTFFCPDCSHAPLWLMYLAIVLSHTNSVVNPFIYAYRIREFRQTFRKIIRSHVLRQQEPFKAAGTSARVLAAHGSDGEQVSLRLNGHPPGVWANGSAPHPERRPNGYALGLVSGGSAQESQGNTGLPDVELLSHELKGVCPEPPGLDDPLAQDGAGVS
MEASUREMENT_DESCRIPTION: Displacement of [3H][…] from human adenosine A2A receptor expressed in human HeLa cells at 0.1 uM by liquid scintillation counting
Type: cell-based
Known inhibition of a selection of compounds
Report the figure in % without appending any unit label.

Example entries and their recorded answers appear below.
SMILES	VALUE_UNIT	TEST_VALUE
CCCC(=O)Nc1nc(-c2ccc(C(F)(F)F)cc2)cc(-c2ccc(C(F)(F)F)cc2)n1	%	2
CCC(=O)Nc1cc(-c2ccc(C(F)(F)F)cc2)nc(-c2ccc(C(F)(F)F)cc2)n1	%	17
CCC(=O)Nc1cc(-c2ccccc2OC)nc(-c2ccccc2OC)n1	%	22
CC(=O)Nc1cc(/C=C/c2ccccc2)nc(/C=C/c2ccccc2)n1	%	13
CCCC(=O)Nc1nc(-c2ccc3c(c2)OCO3)cc(-c2ccc3c(c2)OCO3)n1	%	8
CCCC(=O)Nc1cc(-c2ccc3c(c2)OCO3)nc(-c2ccc3c(c2)OCO3)n1	%	22

# input Param readout= inhibition; system= Adenosine receptor A2a (Homo sapiens, UniProt P29274); entry= CCCC(=O)Nc1cc(/C=C/c2ccccc2)nc(/C=C/c2ccccc2)n1 ; returns value.
# output 1

# input Hi! What's the reported inhibition for CCC(=O)Nc1cc(-c2ccc(SC)cc2)nc(-c2ccc(SC)cc2)n1 on Adenosine receptor A2a (Homo sapiens, UniProt P29274)?
# output 1

# input Record CSc1ccc(-c2cc(-c3ccc(SC)cc3)nc(NC(C)=O)n2)cc1 : what is its inhibition with Adenosine receptor A2a (Homo sapiens, UniProt P29274)?
# output 1

# input Recorded inhibition for CCCC(=O)Nc1nc(-c2ccccc2OC)cc(-c2ccccc2OC)n1 with Adenosine receptor A2a (Homo sapiens, UniProt P29274), please?
# output 11
